- measurement protocol: sensitizers of A549 cells to miR-34 induction, primary screen, imaging, A549 dox-inducible miR-34, nuclei and caspase counts (AID 1347080)
- study conditions: A549 miR-34 inducible, Hoechst nuclei count, 48 h; measured here: relative caspase fold change +Dox/-Dox
Listing: fold change of selected molecules

> print(dat)
                              molecule  result
1  CN(C)CCN1C(=O)c2ccccc2N(C)c2ccccc21    1.32

// lookup fold change for "CN(C)C(=O)COC(=O)Cc1ccc(OC(=O)c2ccc(N=C(N)N)cc2)cc1"
0.433

For "Cc1c(N)c(=O)n(-c2ccccc2)n1C" , what is its reported fold change?
1.06

What value of measured fold change is listed for "O=c1[nH]c2cc(C(F)(F)F)c(N3CCOCC3)cc2n(CP(=O)(O)O)c1=O" ?
1.52

Tell me the measured fold change of "Cc1cccc(C)c1NC(=O)CN1CCN(CCCC(c2ccc(F)cc2)c2ccc(F)cc2)CC1" , please.
1.28

Entry under review: "O=S(=O)(O)CCCS(=O)(=O)O" . Reported fold change?
1.14

For "CC[N+](C)(CC)CCOC(=O)C1c2ccccc2Oc2ccccc21" , what is its reported fold change?
0.614

---

- measurement protocol: inhibition of endothelial tube formation, primary screen, imaging, VEGF stimulated, CD31 staining, tube area, NPC library (AID 1117340)
- study conditions: VEGF-stimulated ADSC/ECFC co-culture, at 10 µM, stronger effect = higher value
endpoint label: tube area decrease (%)
# value in %; strip the unit string

Which tube area decrease reading was recorded for the molecule "O=C(O)CCc1nc(-c2ccccc2)c(-c2ccccc2)o1" ?
-17.6

Fill blank: measured tube area decrease of the molecule "CC(=O)Nc1ncc([N+](=O)[O-])s1" is ____.
5.9

Requested field: tube area decrease. Item: C[N+]1(C)CCC(OC(=O)C(O)(c2ccccc2)C2CCCC2)C1 (configuration not stated)
-0.8

Can you share its tube area decrease? I mean this molecule: "CC(=O)OCC(=O)[C@@]12N=C(C)O[C@@H]1C[C@H]1[C@@H]3CCC4=CC(=O)C=C[C@]4(C)[C@H]3[C@@H](O)C[C@@]12C"
2.2

Find the recorded tube area decrease belonging to CC(COc1ccccc1)NN (configuration not stated) and report it.
1.6

---

- measurement protocol: growth inhibition of GSK3B-pretreated HCT116 cells – cell-based, CellTiter-Glo, 0.2 to 20 µM (AID 1117336)
- study conditions: HCT116 viability after GSK3B inhibitor, at 20 µM, stronger effect = higher value
Calls of active or inactive are those of the source.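 The calls were made as follows: active = compounds lowering colon cancer cell viability after pretreatment blocking the GSK3B kinase; inactive = the rest.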
endpoint label: viability decrease

> print(dat)
                                   molecule            result
1  Cn1cc(S(C)=O)c(=O)c2ccc(F)cc21 (stereo unspecified)  -6.9% (inactive)

I have this molecule here, "CCOc1ccccc1OCCN[C@H](C)Cc1ccc(OC)c(S(N)(=O)=O)c1" , and I need its recorded viability decrease.
4.2% (inactive)

# viability decrease lookup, item Clc1ccc(C(Cn2ccnc2)OCc2ccsc2Cl)c(Cl)c1 (stereo unspecified)
100% (active)

Item "Cc1c(-c2ccccc2)oc2c(C(=O)OCCN3CCCCC3)cccc2c1=O" has what recorded viability decrease?
-5.1% (inactive)

Any idea what its viability decrease is? The molecule is "CC(=O)Nc1c(I)c(NC(C)=O)c(I)c(C(=O)O)c1I"
2.3% (inactive)

Any idea what viability decrease was measured for "C[C@]12CCC(=O)C=C1[C@@H]1C[C@@H]1[C@H]1[C@@H]3[C@@H]4C[C@@H]4[C@@]4(CCC(=O)O4)[C@@]3(C)CC[C@@H]12" ?
2.2% (inactive)

Can you share its viability decrease? I mean this molecule: "CCOC(=O)/C=C(C)/C=C/C=C(C)/C=C/c1c(C)cc(OC)c(C)c1C"
62.2% (active)

---

- measurement protocol: stimulators of nuclear beta-catenin in C2C12, primary screen, imaging, WNT3A-conditioned medium, mouse C2C12, NPC library (AID 1117326)
- study conditions: stimulation, at 2 µM, stronger effect = higher value
endpoint label: nuclear beta-catenin stimulation (%)
Give just the number in %; leave the unit off.

Consider the reported nuclear beta-catenin stimulation for these molecules:
> print(dat)
                                   molecule  recorded.number
1       N[C@@H](Cc1c[nH]c2ccc(O)cc12)C(=O)O              3.9
2  CCN(CC)C(=O)/C(C#N)=C/c1cc(O)c(O)c([N+](=O)[O-])c1              1.2
3      Clc1ccc(Cn2c(CN3CCCC3)nc3ccccc32)cc1                3
4  Cc1c(O)cc2c(c1C)O[C@](C)(CCC[C@H](C)CCC[C@H](C)CCCC(C)C)CC2             -0.6

Can you share its nuclear beta-catenin stimulation? I mean this molecule: CCC1NC(=O)c2cc(S(N)(=O)=O)c(Cl)cc2N1 (stereo unspecified)
2.9

Any idea what its nuclear beta-catenin stimulation is? The molecule is "CCCCCCCCCCCCCCCC[N+](C)(C)CCN(Cc1ccc(OC)cc1)c1ncccn1"
0

---

- measurement protocol: differential killing of epithelial or mesenchymal cells, primary screen, imaging, PC-3E GFP, TEM4-18 mCherry, co-culture (AID 1345086);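 also: normalised mesenchymal count divided by normalised epithelial count so high means epithelial killing; cells exposed to compound for 72 h before imaging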
- study conditions: imaging cell counts, at 1 µM, actives lie on both sides, counts scaled to control wells, 1 = unselective
endpoint label: red/green cell ratio (normalised)
Please reply with the number alone, leaving off any unit.

Example molecules with recorded red/green cell ratio (normalised):
molecule	red/green cell ratio (normalised)
CCCNC(C)(C)COC(=O)c1ccccc1	1.13
COc1cc(/C=C/C(=O)O)cc(OC)c1OC	0.99
CC(=O)c1ccc2c(c1)N(CCCN(C)C)c1ccccc1S2	0.9

Now, please, on to the next molecule.
Can you look up the measured red/green cell ratio (normalised) of "O=S(=O)(c1cccc2cnccc12)N1CCCNCC1" for me?
1.1

---

Listing: nuclear beta-catenin stimulation of selected molecules
- measurement protocol: stimulators of nuclear beta-catenin in C2C12, primary screen, imaging, WNT3A-conditioned medium, mouse C2C12, NPC library (AID 1117326)
- study conditions: at 10 µM, stronger effect = higher value
State just the number; it will be interpreted in %.

molecule	nuclear beta-catenin stimulation, %
Clc1ccc(C(Cn2ccnc2)OCc2c(Cl)cccc2Cl)c(Cl)c1 (stereo not given)	1.3

Quick one: nuclear beta-catenin stimulation of "NCCCNCCSP(=O)(O)O" ?
-1.3

What value of measured nuclear beta-catenin stimulation is listed for "CCOC(=O)c1ccc(C#Cc2ccc3c(c2)C(C)(C)CCS3)nc1" ?
6

Name the recorded nuclear beta-catenin stimulation for "CCN1CCc2nc(N)oc2CC1" .
-1.7

May I ask what nuclear beta-catenin stimulation has been recorded for "c1cc(CN2CCCCC2)cc(OCCCNc2nc3ccccc3s2)c1" ?
3.6

Fill blank: measured nuclear beta-catenin stimulation of the molecule "CC(=O)O[C@@]12CO[C@@H]1C[C@H](O)[C@@]1(C)C(=O)[C@H](O)C3=C(C)[C@@H](OC(=O)[C@H](O)[C@@H](NC(=O)OC(C)(C)C)c4ccccc4)C[C@@](O)([C@@H](OC(=O)c4ccccc4)[C@H]21)C3(C)C" is ____.
66.2

Please report the recorded nuclear beta-catenin stimulation for "Cc1ncc([N+](=O)[O-])n1C" .
1.7

Which value of nuclear beta-catenin stimulation has been reported for "Nc1ncn([C@H]2C[C@H](O)[C@@H](CO)O2)c(=O)n1" in the records?
7.2

Which nuclear beta-catenin stimulation value is on record for "O=C(O)C1(C(=O)O)CCC1.[NH2-].[NH2-].[Pt+2]" ?
0

Entry "CC1=C(CC(=O)O)c2cc(F)ccc2/C1=C\c1ccc(S(C)(=O)=O)cc1" has what nuclear beta-catenin stimulation?
0.1

---

Listing of recorded glutamate uptake change by entry.
- measurement protocol: enhancers of glutamate uptake in motor neurons, MN-1 cell line (AID 1612);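 also: tested at 1 µM final; 0% = mean of DMSO vehicle wells on each plate; positive means more glutamate uptake than control and negative means less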
- study conditions: MN-1 motor neuron cells, stronger effect = higher value
Express the result in % but write the number alone.

Examples with answers:
> print(dat)
                                   compound  recorded.number
1  CC(C)(C)c1ccc(C(O)CCCN2CCC(C(O)(c3ccccc3)c3ccccc3)CC2)cc1 (stereo not given)            -7.35
2  CC1=C(/C=C/C(C)=C/C=C/C(C)=C/CO)C(C)(C)CCC1            -6.81
3                                    NCCCCN             0.99

I have this compound here, "COc1ccc2cc([C@H](C)C(=O)O)ccc2c1" , and I need its recorded glutamate uptake change.
6.08

What value of glutamate uptake change has been recorded for this entry: "C1N2CN3CN1CN(C2)C3"
-31.9

---

- measurement protocol: differential killing of epithelial or mesenchymal cells, primary screen, imaging, PC-3E GFP, TEM4-18 mCherry, co-culture (AID 1345086);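 also: normalised mesenchymal count divided by normalised epithelial count so high means epithelial killing; cells exposed to compound for 72 h before imaging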
- study conditions: imaging cell counts, at 1 µM, actives lie on both sides, counts scaled to control wells, 1 = unselective
Output True for red/green cell ratio (normalised) not less than 1; output False otherwise.

Some solved entries appear below for comparison.
> print(dat)
                                   molecule  assigned.category
1                   COc1ccc(C(=O)O)c(O)c1OC               True
2  C=CC(C1=CC(=O)C(OC)=CC1=O)c1ccc(OC)cc1 (stereo unspecified)              False
3  C[N+]1(C)CCCC(OC(=O)C(O)(c2ccccc2)c2ccccc2)C1 (stereo unspecified)               True

Reported red/green cell ratio (normalised) reaches at least 1 for "COc1ccc(C(=O)c2ccc(O)cc2)c(O)c1O" ?
True

Has "CC(=O)NCc1c(I)c(NC(C)=O)c(I)c(C(=O)O)c1I" a recorded red/green cell ratio (normalised) greater than or equal to 1?
True

# check: red/green cell ratio (normalised) of "COc1cccc(O)c1O" is greater than or equal to 1
False
